# Tested on: HCT-15 colon
# METHOD: NCI-60 one-dose screen, 48 h (100 = growth as untreated, 0 = no growth, -100 = all killed)
# CONDITIONS: 10 µM unless noted
Compounds without any hit were thinned out: in the full panel of roughly 83,000, 20% have a hit.
READOUT_KIND: growth (%)
Numbers only, in %.

CN1CCN(Cc2ccc(NC(=O)c3cncc(C#Cc4cnc(N)c5ccncc45)c3)cc2C(F)(F)F)CC1	10.9
CCN(CC)CCCNc1nccc2ccc(Cl)cc12	104
O=S(=O)(CC(O)(c1ccccc1)c1ccccc1)CC(O)(c1ccccc1)c1ccccc1	96.4

Below are 7 compounds. Give each one its growth.
1. O=[N+]([O-])c1ccc(-c2cn(-c3ccccc3)c(-c3ccccc3)n2)cc1
2. CC(=O)Nc1ccc(/C=C/C(=O)c2ccccc2)cc1
3. Cn1c(=O)cc(NC(=O)CN2CCN(c3cc4c(cc3F)c(=O)c(C(=O)O)cn4C3CC3)CC2)[nH]c1=O
4. COc1cc(C2C3=C(COC3=O)Nc3cc4c(cc32)CCC4)cc2c1OCO2 (stereo not given)
5. CCCCN(CCCC)C(=O)CC
6. COc1cccc(CC(C)=C(c2ccc(OCCN(C)C)cc2)c2ccc(OCCN(C)C)cc2)c1
7. COc1cc(-c2nn(C(=O)NS(=O)(=O)c3ccccc3)cc2-c2ccncc2)ccc1Cl

// result
95.2
91.9
99
14.8
101
-37.8
97.9

----------
# System: OVCAR-4 ovarian
# METHOD: NCI-60 one-dose screen, 48 h (100 = growth as untreated, 0 = no growth, -100 = all killed)
# CONDITIONS: 10 µM unless noted
This is part of a sample that, as a whole, favours compounds with a hit. Of some 83,000 tested, about 20% had one in any assay. Activity calls are given as the source filed them. The calls were made as follows: active = growth percent below 10; inactive = the rest.
Could you please report measured growth for the items listed next?

Below are 4 compounds. Give each one its growth.
1. CCCCCCCCCCCCCCCCCCNC(=O)[C@H]1CSC(c2cccs2)N1 (stereo partly specified)
2. CC1CCC(C)N(C)C1 (stereo unspecified)
3. O=S(=O)(NCCCNc1nccc(-n2ccc3cccnc32)n1)c1ccc(Br)cc1
4. COC(=O)C1CCCN1C(=O)[C@@H]1CCCN1C(=O)[C@H](Cc1c[nH]c2ccccc12)NC(=S)Nc1cc(C(F)(F)F)cc(C(F)(F)F)c1 (stereo partly specified)

// result
["42.2% (inactive)", "107% (inactive)", "99.3% (inactive)", "61.1% (inactive)"]

Below are 3 compounds. Give each one its growth.
1. COc1ccc(C(=O)n2nc(/C=C/c3ccc(O)c(OC)c3)cc2/C=C/c2ccc(O)c(OC)c2)cc1
2. Cc1cc(N)n(S(=O)(=O)c2oc(-c3ccccc3)nc2C#N)n1
3. Nc1ccc(C(=O)CSc2nc3ccccc3[nH]2)cc1

// result
1. -7.85% (active)
2. 106% (inactive)
3. 110% (inactive)

Below are 4 compounds. Give each one its growth.
1. O=C1NN(C(=O)c2ccc(Cl)cc2)C(c2ccccc2)=N/C1=C\c1cn(-c2ccccc2)nc1-c1ccccc1
2. CC(C)(C)N1CCC1C(N)=O (stereo unspecified)
3. O=C(CSC1CCc2ccccc21)N/N=C/c1ccccc1O (stereo unspecified)
4. COc1ccc(-c2nc(N3CCCC3=O)sc2Br)cc1OC

// result
1. 96.8% (inactive)
2. 104% (inactive)
3. 38.1% (inactive)
4. 98.2% (inactive)

The reported measurements were obtained from PubChem BioAssay (NCI).
